Tested on: Staphylococcus sp.
assay-remarks: in vitro antibacterial evaluation, MIC by broth dilution
Assay type: cell-based
condition-description: broth dilution, 18 hours at 35° C., inoculum 5×10^5 CFU/mL; strain GC 1131

| molecule | reading-qualifier | MIC Staphylococcus aureus (GC 1131) (µg/mL) |
| --- | --- | --- |
| CC(C)=CCCC(C)CC1OCC2OC(OC3C(CO)OC(Oc4ccc(CC5NC(=O)C(C(C)c6ccccc6)NC(=O)CNC(=O)C(CO)NC(=O)C(C(O)C6CNC(=N)N6C6OC(CO)C(O)C(O)C6O)NC(=O)C(C(O)C6CNC(=N)N6)NC5=O)cc4)C(O)C3O)C(O)C(O)C2O1 (stereo not drawn) | = | 8 |
| CCCC(C)C1OCC2OC(OC3C(CO)OC(Oc4ccc(CC5NC(=O)C(C(C)c6ccc(Cl)cc6)NC(=O)CNC(=O)C(CO)NC(=O)C(C(O)C6CNC(=N)N6C6OC(CO)C(O)C(O)C6O)NC(=O)C(C(O)C6CNC(=N)N6)NC5=O)cc4)C(O)C3O)C(O)C(O)C2O1 (stereo not drawn) | = | 1 |
| CC(c1ccccc1)C1NC(=O)CNC(=O)C(CO)NC(=O)C(C(O)C2CNC(=N)N2C2OC(CO)C(O)C(O)C2O)NC(=O)C(C(O)C2CNC(=N)N2)NC(=O)C(Cc2ccc(OC3OC(CO)C(OC4OC5COC(c6cccc(OCc7ccc([N+](=O)[O-])cc7)c6)OC5C(O)C4O)C(O)C3O)cc2)NC1=O (stereo not drawn) | > | 64 |
| CC(c1ccccc1)C1NC(=O)CNC(=O)C(CO)NC(=O)C(CC2CNC(=N)N2C2OC(CO)C(O)C(O)C2O)NC(=O)C(CC2CNC(=N)N2)NC(=O)C(Cc2ccc(OC3OC(CO)C(OC4OC5COC(c6ccc(OCc7ccccc7)cc6)OC5C(O)C4O)C(O)C3O)cc2)NC1=O (stereo not drawn) | = | 8 |
| CC(c1ccc(Cl)cc1)C1NC(=O)CNC(=O)C(CO)NC(=O)C(C(O)C2CNC(=N)N2C2OC(CO)C(O)C(O)C2O)NC(=O)C(C(O)C2CNC(=N)N2)NC(=O)C(Cc2ccc(OC3OC(CO)C(OC4OC5COC(C6CCCCC6)OC5C(O)C4O)C(O)C3O)cc2)NC1=O (stereo not drawn) | = | 1 |
| CSc1ccc(C2OCC3OC(OC4C(CO)OC(Oc5ccc(CC6NC(=O)C(C(C)c7ccccc7)NC(=O)CNC(=O)C(CO)NC(=O)C(C(O)C7CNC(=N)N7C7OC(CO)C(O)C(O)C7O)NC(=O)C(C(O)C7CNC(=N)N7)NC6=O)cc5)C(O)C4O)C(O)C(O)C3O2)cc1 (stereo not drawn) | = | 1 |
| COc1ccc2cc(C3OCC4OC(OC5C(CO)OC(Oc6ccc(CC7NC(=O)C(C(C)c8ccccc8)NC(=O)CNC(=O)C(CO)NC(=O)C(CC8CNC(=N)N8C8OC(CO)C(O)C(O)C8O)NC(=O)C(CC8CNC(=N)N8)NC7=O)cc6)C(O)C5O)C(O)C(O)C4O3)ccc2c1 (stereo not drawn) | = | 16 |
| CC(C)=CCCC1OCC2OC(OC3C(CO)OC(Oc4ccc(CC5NC(=O)C(C(C)c6ccccc6)NC(=O)CNC(=O)C(CO)NC(=O)C(C(O)C6CNC(=N)N6C6OC(CO)C(O)C(O)C6O)NC(=O)C(C(O)C6CNC(=N)N6)NC5=O)cc4)C(O)C3O)C(O)C(O)C2O1 (stereo not drawn) | = | 8 |
| CC(c1ccccc1)C1NC(=O)CNC(=O)C(CO)NC(=O)C(C(O)C2CNC(=N)N2C2OC(CO)C(O)C(O)C2O)NC(=O)C(C(O)C2CNC(=N)N2)NC(=O)C(Cc2ccc(OC3OC(CO)C(OC4OC5COC(c6cccc(O)c6)OC5C(O)C4O)C(O)C3O)cc2)NC1=O (stereo not drawn) | = | 16 |
